Below: a set of entries, each annotated with reported TEC @ 0.3 μM (% Inh).
# tgt: TEC (Homo sapiens, UniProt P42680)
# Construct: purchased Reaction Biology Corporation
# Sequence (P42680 1-631): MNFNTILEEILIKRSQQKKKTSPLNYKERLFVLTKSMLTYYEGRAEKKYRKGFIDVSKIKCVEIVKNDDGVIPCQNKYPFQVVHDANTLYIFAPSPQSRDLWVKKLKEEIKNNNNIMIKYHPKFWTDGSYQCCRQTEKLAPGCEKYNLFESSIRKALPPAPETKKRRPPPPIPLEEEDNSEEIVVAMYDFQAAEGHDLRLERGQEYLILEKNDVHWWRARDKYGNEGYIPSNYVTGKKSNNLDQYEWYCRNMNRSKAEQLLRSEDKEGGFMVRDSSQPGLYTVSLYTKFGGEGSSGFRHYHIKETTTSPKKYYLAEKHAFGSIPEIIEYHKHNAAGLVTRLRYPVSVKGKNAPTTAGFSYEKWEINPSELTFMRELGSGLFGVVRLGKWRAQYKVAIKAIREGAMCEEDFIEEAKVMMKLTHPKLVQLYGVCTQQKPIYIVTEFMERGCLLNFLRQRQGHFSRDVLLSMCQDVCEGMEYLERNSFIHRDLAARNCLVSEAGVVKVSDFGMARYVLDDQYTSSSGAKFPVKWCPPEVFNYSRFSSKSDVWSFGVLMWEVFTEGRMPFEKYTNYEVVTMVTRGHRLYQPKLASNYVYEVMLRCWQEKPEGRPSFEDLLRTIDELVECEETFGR
# protocol notes: TEC kinase profiling (BTK protocol)
# Format: biochemical
# assay conditions: 0.3 μM compound

compound	tgt	TEC @ 0.3 μM (% Inh)
Nc1ncnc2c1c(-c1cc(O)c(F)c(Cl)c1)cn2C1Cc2ccccc2C1 [compound 110]	TEC (Homo sapiens, UniProt P42680)	89.37
Nc1ncnc2c1c(-c1cc(F)c3c(c1)NCCO3)nn2C1Cc2ccccc2C1 [Compound No. 84]	TEC (Homo sapiens, UniProt P42680)	23.9
Nc1ncnc2c1c(-c1ccc(Cl)c(O)c1F)nn2C1Cc2ccccc2C1 [Compound No. 100]	TEC (Homo sapiens, UniProt P42680)	102.76
Nc1ncnc2c1c(-c1ccc(F)c(O)c1)nn2C1CCc2ccccc2C1 (racemic) [Compound No. 26]	TEC (Homo sapiens, UniProt P42680)	66.1
N#Cc1cc(-c2cn(C3Cc4ccccc4C3)c3ncnc(N)c23)cc(O)c1F [compound 115]	TEC (Homo sapiens, UniProt P42680)	48.29
Nc1ncnc2c1c(-c1ccc(Cl)c(O)c1)nn2C1Cc2ccccc2C1 [Compound No. 56]	TEC (Homo sapiens, UniProt P42680)	61.02
Nc1ncnc2c1c(-c1cc(O)cc(F)c1)nn2C1Cc2ccc(F)cc2C1 (centres unmarked) [compound 57]	TEC (Homo sapiens, UniProt P42680)	40.21
C=CC(=O)N1CC(n2nc(-c3cc(O)cc(F)c3)c3c(N)ncnc32)Cc2cc(C)ccc21 (single isomer, unassigned) [31b]	TEC (Homo sapiens, UniProt P42680)	56.91

====

# tgt: BTK (Homo sapiens)
# Construct: purchased Reaction Biology Corporation
# Sequence (Q06187 whole entry): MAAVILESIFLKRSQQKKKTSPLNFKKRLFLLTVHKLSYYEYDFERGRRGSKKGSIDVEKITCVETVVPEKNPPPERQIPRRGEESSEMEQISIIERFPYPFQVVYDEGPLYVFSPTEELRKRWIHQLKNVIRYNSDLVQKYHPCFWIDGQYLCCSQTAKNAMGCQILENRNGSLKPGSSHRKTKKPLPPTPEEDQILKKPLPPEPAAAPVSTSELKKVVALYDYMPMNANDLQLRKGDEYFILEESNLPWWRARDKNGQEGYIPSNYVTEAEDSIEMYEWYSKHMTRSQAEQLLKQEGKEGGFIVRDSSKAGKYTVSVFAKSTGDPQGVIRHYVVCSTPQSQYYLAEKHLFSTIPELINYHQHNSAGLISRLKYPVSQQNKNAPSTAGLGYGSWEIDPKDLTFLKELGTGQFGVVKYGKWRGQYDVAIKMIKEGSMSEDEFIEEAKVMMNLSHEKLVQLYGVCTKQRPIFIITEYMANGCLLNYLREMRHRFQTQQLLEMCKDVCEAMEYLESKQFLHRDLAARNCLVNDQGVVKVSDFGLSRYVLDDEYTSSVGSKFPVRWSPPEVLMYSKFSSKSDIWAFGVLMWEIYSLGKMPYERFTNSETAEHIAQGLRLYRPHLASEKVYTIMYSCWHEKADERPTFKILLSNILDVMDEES
# protocol notes: BTK kinase assay (HotSpot, 33P ATP)
# Assay type: biochemical
# assay conditions: 0.1 μM compound, 10 μM ATP
Recorded measurements of BTK @ 0.1 μM (% Inh), one per entry
recorded metric: BTK @ 0.1 μM (% Inh)

compound	recorded metric	observed result
Nc1ncnc2c1c(-c1ccc(Br)c(O)c1)nn2C1CCc2ccccc21 (single isomer, unassigned) [36a]	BTK @ 0.1 μM (% Inh)	26.99
CC(=O)Nc1cccc(-c2nn(C3Cc4ccccc4C3)c3ncnc(N)c23)c1	BTK @ 0.1 μM (% Inh)	14.08
Nc1ncnc2c1c(-c1cc(O)cc(Cl)c1)nn2C1Cc2ccccc2C1	BTK @ 0.1 μM (% Inh)	43.63
COc1cc(-c2nn(C3Cc4ccccc4C3)c3ncnc(N)c23)cc(C(F)(F)F)c1F	BTK @ 0.1 μM (% Inh)	3.3

====

# tgt: PI3Kδ (Homo sapiens, UniProt O00329)
# Construct: purchased Reaction Biology Corporation
# Sequence (O00329 whole entry): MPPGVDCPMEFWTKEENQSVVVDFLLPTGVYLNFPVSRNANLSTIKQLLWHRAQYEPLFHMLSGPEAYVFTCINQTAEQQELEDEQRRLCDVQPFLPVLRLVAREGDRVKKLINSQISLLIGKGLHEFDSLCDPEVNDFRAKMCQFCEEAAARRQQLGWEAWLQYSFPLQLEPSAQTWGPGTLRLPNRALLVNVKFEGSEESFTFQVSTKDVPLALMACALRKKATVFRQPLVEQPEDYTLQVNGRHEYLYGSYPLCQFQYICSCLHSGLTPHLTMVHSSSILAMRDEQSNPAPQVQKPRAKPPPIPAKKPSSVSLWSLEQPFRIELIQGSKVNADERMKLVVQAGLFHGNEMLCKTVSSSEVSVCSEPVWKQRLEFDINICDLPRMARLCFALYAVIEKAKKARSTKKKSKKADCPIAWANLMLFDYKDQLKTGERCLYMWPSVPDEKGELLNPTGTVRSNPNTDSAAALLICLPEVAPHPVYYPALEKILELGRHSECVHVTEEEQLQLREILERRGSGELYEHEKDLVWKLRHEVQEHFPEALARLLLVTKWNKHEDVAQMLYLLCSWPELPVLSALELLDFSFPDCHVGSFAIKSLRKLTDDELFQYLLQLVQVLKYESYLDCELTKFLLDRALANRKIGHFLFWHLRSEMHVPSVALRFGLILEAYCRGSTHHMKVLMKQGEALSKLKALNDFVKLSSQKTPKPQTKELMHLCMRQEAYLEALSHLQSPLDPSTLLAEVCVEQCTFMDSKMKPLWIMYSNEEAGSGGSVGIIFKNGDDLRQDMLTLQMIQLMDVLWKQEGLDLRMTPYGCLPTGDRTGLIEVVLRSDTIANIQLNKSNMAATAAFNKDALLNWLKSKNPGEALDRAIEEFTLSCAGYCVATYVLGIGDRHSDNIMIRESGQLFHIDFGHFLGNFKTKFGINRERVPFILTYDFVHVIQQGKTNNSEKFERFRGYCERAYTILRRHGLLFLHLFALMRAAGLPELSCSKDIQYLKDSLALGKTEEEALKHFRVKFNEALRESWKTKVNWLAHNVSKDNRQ
# Sequence (P27986 whole entry partner): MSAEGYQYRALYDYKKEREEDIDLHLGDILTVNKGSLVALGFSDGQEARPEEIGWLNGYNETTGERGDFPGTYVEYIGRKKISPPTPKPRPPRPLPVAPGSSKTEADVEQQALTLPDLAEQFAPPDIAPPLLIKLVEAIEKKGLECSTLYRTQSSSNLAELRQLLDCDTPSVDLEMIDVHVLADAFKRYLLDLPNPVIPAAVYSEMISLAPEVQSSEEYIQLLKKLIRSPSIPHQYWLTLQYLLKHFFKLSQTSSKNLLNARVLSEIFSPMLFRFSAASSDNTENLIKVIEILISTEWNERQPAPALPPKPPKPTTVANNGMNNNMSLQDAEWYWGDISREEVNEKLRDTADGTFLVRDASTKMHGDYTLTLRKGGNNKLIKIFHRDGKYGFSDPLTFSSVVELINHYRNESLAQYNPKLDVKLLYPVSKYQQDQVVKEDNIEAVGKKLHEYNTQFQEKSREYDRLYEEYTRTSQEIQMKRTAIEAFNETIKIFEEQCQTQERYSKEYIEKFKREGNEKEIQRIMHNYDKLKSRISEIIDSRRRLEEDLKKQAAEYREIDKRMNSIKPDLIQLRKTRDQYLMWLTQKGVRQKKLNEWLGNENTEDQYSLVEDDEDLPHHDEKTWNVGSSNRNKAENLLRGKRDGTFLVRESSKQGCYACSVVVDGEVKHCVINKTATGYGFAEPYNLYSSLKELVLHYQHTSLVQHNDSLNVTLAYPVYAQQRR
# protocol notes: PI3Kδ kinase assay (HTRF, PIP3 detection)
# Type: biochemical
# assay conditions: 0.1 μM compound, 10 μM ATP
The reader will find reported PI3Kδ @ 0.1 μM (% Inh) values listed item by item below.

molecule	PI3Kδ @ 0.1 μM (% Inh)
CCOc1c(Cl)cc(-c2nn(C3Cc4ccccc4C3)c3ncnc(N)c23)cc1OC [Compound No. 77]	−1.66
Nc1ncnc2c1c(-c1ccc(Br)c(O)c1)nn2C1CCc2ccccc21 (centres unmarked) [36b]	40.07
Nc1ncnc2c1c(-c1ccc(Cl)c(O)c1F)nn2C1Cc2ccccc2C1 [Compound No. 100]	71.71
Nc1ncnc2c1c(-c1ccc3c(c1)NCCO3)nn2C1Cc2ccccc2C1 [Compound No. 99]	39.74
Nc1ncnc2c1c(-c1cc(O)c(F)c(C(F)(F)F)c1)nn2C1Cc2ccccc2C1 [Compound No. 102]	93.99
Nc1ncnc2c1c(-c1cc(O)cc(F)c1)nn2C1CCCc2ccccc21 (centres unmarked) [compound 11]	45.08
Nc1ncnc2c1c(-c1cc(O)cc(F)c1)nn2C1Cc2cc(F)ccc2C1=O (centres unmarked) [compound 51]	73.20
Nc1ncnc2c1c(-c1ccc3[nH]cnc3c1)nn2C1Cc2ccccc2C1 [Compound No. 47]	78.41
Nc1cc(-c2nn(C3CCc4ccccc4C3)c3ncnc(N)c23)cc(F)c1F (centres unmarked) [compound 122]	25.32
COc1ccc(-c2nn(C3Cc4ccccc4C3)c3ncnc(N)c23)c(OC)c1OC [Compound No. 83]	−5.17
NCc1cccc(-c2nn(C3Cc4ccccc4C3)c3ncnc(N)c23)c1 [compound 133]	1.17
Nc1ncnc2c1c(-c1cccc(CO)c1)nn2C1Cc2ccccc2C1 [Compound No. 54]	22.41
NC(=O)c1ccc(-c2nn(C3Cc4ccccc4C3)c3ncnc(N)c23)cc1O [compound 111]	91.28
Nc1ncnc2c1c(-c1ccc(F)c(F)c1)nn2C1Cc2ccccc2C1 [Compound No. 89]	17.95

====

# IC50 per record follows
# tgt: BMX/ETK (Homo sapiens, UniProt P51813)
# Sequence (P51813 whole entry): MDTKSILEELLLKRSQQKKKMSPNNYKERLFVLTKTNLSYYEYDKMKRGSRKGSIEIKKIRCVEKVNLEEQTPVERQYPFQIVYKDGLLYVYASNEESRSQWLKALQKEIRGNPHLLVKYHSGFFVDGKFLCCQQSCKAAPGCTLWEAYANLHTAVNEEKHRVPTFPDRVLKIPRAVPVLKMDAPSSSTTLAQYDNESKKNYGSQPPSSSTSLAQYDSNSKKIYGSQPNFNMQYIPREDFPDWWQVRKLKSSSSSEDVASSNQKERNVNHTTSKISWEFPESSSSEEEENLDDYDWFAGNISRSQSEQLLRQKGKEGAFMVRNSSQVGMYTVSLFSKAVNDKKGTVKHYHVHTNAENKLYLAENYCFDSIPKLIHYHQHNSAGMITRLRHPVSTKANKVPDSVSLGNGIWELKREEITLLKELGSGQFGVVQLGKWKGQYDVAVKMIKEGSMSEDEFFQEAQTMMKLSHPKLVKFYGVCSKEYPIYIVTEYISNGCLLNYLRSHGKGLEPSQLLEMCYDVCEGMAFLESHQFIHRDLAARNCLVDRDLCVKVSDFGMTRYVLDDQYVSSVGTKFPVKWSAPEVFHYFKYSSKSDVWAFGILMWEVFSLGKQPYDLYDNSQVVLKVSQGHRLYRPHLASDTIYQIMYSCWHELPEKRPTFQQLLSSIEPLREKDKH
# protocol notes: BMX/ETK kinase profiling (BTK protocol)
# assay conditions: 10 dose IC50

molecule	IC50 [nM]
Nc1ncnc2c1c(-c1ccc(F)c(O)c1)nn2C1CCc2ccccc2C1 (single isomer, unassigned) [Compound No. 26b]	6.2
Nc1ncnc2c1c(-c1ccc(F)c(O)c1)nn2C1Cc2ccccc2C1	0.8
C=CC(=O)N1CC(n2nc(-c3cc(O)cc(F)c3)c3c(N)ncnc32)Cc2cc(C)ccc21 (stereo not shown)	6400
Nc1ncnc2c1c(-c1ccc(Br)c(O)c1)nn2C1Cc2ccccc2C1	7.7
Nc1ncnc2c1c(-c1cc(O)cc(F)c1)nn2C1Cc2ccccc2C1	189
Nc1ncnc2c1c(-c1cc(O)cc(F)c1)nn2C1CCc2ccccc2C1 (stereo not shown)	184
Nc1ncnc2c1c(-c1ccc(F)c(O)c1)nn2C1CCc2ccccc2C1 (single isomer, unassigned) [Compound No. 26a]	3.1

====

# System: CD69+B220+ cells
# protocol notes: B cell activation assay (IgD-stimulated splenocytes, CD69+B220+ cells by FACS)
# Assay type: cell-based
# assay conditions: 100 nM compound, mouse splenocytes, IgD 3 μg/mL, 4 h
Documented CD69 @ 100 nM (% Inh) across a set of molecules

molecule	CD69 @ 100 nM (% Inh)
Nc1ncnc2c1c(-c1ccc(Br)c(O)c1)nn2C1CCc2ccccc21 (single isomer, unassigned) [36a]	1.63 ± 7.31 (n = 3) % Inh
Nc1ncnc2c1c(-c1ccc(Cl)c(O)c1F)nn2C1Cc2ccccc2C1 [Compound No. 100]	27.39 ± 22.07 (n = 5) % Inh
NC(=O)c1cc(-c2nn(C3CCc4ccccc4C3)c3ncnc(N)c23)cc(O)c1F (centres unmarked) [compound 131]	15.73 ± 14.11 (n = 3) % Inh
N#Cc1cc(-c2nn(C3CCc4ccccc4C3)c3ncnc(N)c23)cc(O)c1F (centres unmarked) [compound 130]	67.53 ± 15.54 (n = 3) % Inh
Nc1ncnc2c1c(-c1cc(O)c(F)c(F)c1)cn2C1Cc2ccccc2C1 [Compound No. 101]	−12.35 ± 33.92 (n = 5) % Inh
Nc1ncnc2c1c(-c1ccc(Cl)c(O)c1)nn2C1Cc2ccccc2C1 [Compound No. 56]	20.57 ± 19.79 (n = 9) % Inh
Nc1ncnc2c1c(-c1cc(O)c(Cl)c(Cl)c1)nn2C1Cc2ccccc2C1 [compound 118]	44.32 ± 10.35 (n = 3) % Inh
COc1ccc(-c2nn(C3CCc4ccccc4C3)c3ncnc(N)c23)cc1OC (racemic) [compound 17]	33.56 ± 13.70 (n = 5) % Inh

====

# tgt: BTK (Homo sapiens)
# Construct: purchased Reaction Biology Corporation
# protocol notes: BTK kinase assay (HotSpot, 33P ATP)
# Type: biochemical
# assay conditions: 0.1 μM compound, 10 μM ATP

compound	unit of measure	BTK @ 0.1 μM (% Inh)
Nc1cc(-c2nn(C3Cc4ccccc4C3)c3ncnc(N)c23)cc(F)c1F	% Inh	63.35
Nc1ncnc2c1c(-c1cccc3[nH]ccc13)nn2C1Cc2ccccc2C1	% Inh	18.18
Nc1cc(-c2nn(C3Cc4ccccc4C3)c3ncnc(N)c23)cnc1Cl	% Inh	72.07
NCc1cccc(-c2nn(C3Cc4ccccc4C3)c3ncnc(N)c23)c1	% Inh	−0.94
Nc1ncnc2c1c(-c1cc(O)cc(F)c1)nn2C1Cc2cc(F)ccc2C1=O (centres unmarked)	% Inh	41.05
NCc1ccc(-c2nn(C3Cc4ccccc4C3)c3ncnc(N)c23)cc1	% Inh	−6.05
Nc1ncnc2c1c(-c1ccc3cc[nH]c3c1)nn2C1CCc2ccccc2C1 (racemic)	% Inh	38.26
Nc1ncnc2c1c(-c1ccc3c(c1)OCCCO3)nn2C1Cc2ccccc2C1	% Inh	10.82
NC(=O)c1ccc(-c2nn(C3CCc4ccccc4C3)c3ncnc(N)c23)cc1 (centres unmarked)	% Inh	14.0
COc1cc(-c2nn(C3Cc4ccccc4C3)c3ncnc(N)c23)cc(F)c1F	% Inh	33.72
Nc1ncnc2c1c(-c1cc(O)c(F)c(F)c1)c(F)n2C1Cc2ccccc2C1	% Inh	93.64
CCOc1c(Cl)cc(-c2nn(C3Cc4ccccc4C3)c3ncnc(N)c23)cc1OC	% Inh	24.85
Nc1ncnc2c1c(-c1cc(O)cc(F)c1)nn2C1CCCc2ccc(F)cc21 (centres unmarked)	% Inh	4.89
Nc1ncnc2c1c(-c1ccc(Br)c(O)c1)nn2C1Cc2ccccc2C1	% Inh	78.45
N#Cc1cc(-c2cn(C3Cc4ccccc4C3)c3ncnc(N)c23)cc(O)c1F	% Inh	50.43
Nc1ncnc2c1c(-c1cc(O)cc(OC(F)(F)F)c1)nn2C1Cc2ccccc2C1	% Inh	6.81
Nc1ncnc2c1c(-c1cc(O)c(Cl)cc1Cl)nn2C1Cc2ccccc2C1	% Inh	47.24
